Test system: LNCaP tumor-bearing CB-17 SCID mice
conditionInfo: male, mouse, in vivo, 1 h
// reported Biodistribution heart for each item listed

[
  {
    "molecule": "CC(C)(C)[Si](F)(c1ccc(C(=O)NC[C@H](NC(=O)CC[C@@H](C(=O)O)N2CCN(CC(=O)O)CCN(CC(=O)O)CCN(CC(=O)O)CC2)C(=O)N[C@H](CCCCNC(=O)CCC(=O)NCCC[C@@H](NC(=O)CC[C@H](NC(=O)N[C@@H](CCC(=O)O)C(=O)O)C(=O)O)C(=O)O)C(=O)O)cc1)C(C)(C)C [rhPSMA7.4, [^19F][^natGa]L-Dap-S-DOTAGA-rhPSMA7, metal not drawn]",
    "unitInfo": "% ID/g",
    "Biodistribution heart": 0.71
  },
  {
    "molecule": "CC(C)(C)[Si](F)(c1ccc(C(=O)NC[C@H](NC(=O)CC[C@H](C(=O)O)N2CCN(CC(=O)O)CCN(CC(=O)O)CCN(CC(=O)O)CC2)C(=O)N[C@H](CCCCNC(=O)CCC(=O)NCCC[C@@H](NC(=O)CC[C@H](NC(=O)N[C@@H](CCC(=O)O)C(=O)O)C(=O)O)C(=O)O)C(=O)O)cc1)C(C)(C)C [rhPSMA7.2, [^19F][^natGa]L-Dap-R-DOTAGA-rhPSMA7, metal not drawn]",
    "unitInfo": "% ID/g",
    "Biodistribution heart": 0.32
  },
  {
    "molecule": "CC(C)(C)[Si](F)(c1ccc(C(=O)NC[C@@H](NC(=O)CC[C@H](C(=O)O)N2CCN(CC(=O)O)CCN(CC(=O)O)CCN(CC(=O)O)CC2)C(=O)N[C@H](CCCCNC(=O)CCC(=O)NCCC[C@@H](NC(=O)CC[C@H](NC(=O)N[C@@H](CCC(=O)O)C(=O)O)C(=O)O)C(=O)O)C(=O)O)cc1)C(C)(C)C [rhPSMA7.1, [^19F][^natGa]D-Dap-R-DOTAGA-rhPSMA7, metal not drawn]",
    "unitInfo": "% ID/g",
    "Biodistribution heart": 0.53
  }
]

* * *

Tested on: LNCaP tumor-bearing CB-17 SCID mice
conditionInfo: male, mouse, in vivo, 1 h
# Biodistribution spleen per record follows

[
  {
    "molecule": "CC(C)(C)[Si](F)(c1ccc(C(=O)NC[C@@H](NC(=O)CC[C@@H](C(=O)O)N2CCN(CC(=O)O)CCN(CC(=O)O)CCN(CC(=O)O)CC2)C(=O)N[C@H](CCCCNC(=O)CCC(=O)NCCC[C@@H](NC(=O)CC[C@H](NC(=O)N[C@@H](CCC(=O)O)C(=O)O)C(=O)O)C(=O)O)C(=O)O)cc1)C(C)(C)C [rhPSMA7.3, [^19F][^natGa]D-Dap-S-DOTAGA-rhPSMA7, metal not drawn]",
    "measuredTarget": "LNCaP tumor-bearing CB-17 SCID mice",
    "Biodistribution spleen (% ID/g)": 16.6
  },
  {
    "molecule": "CC(C)(C)[Si](F)(c1ccc(C(=O)NC[C@@H](NC(=O)CC[C@H](C(=O)O)N2CCN(CC(=O)O)CCN(CC(=O)O)CCN(CC(=O)O)CC2)C(=O)N[C@H](CCCCNC(=O)CCC(=O)NCCC[C@@H](NC(=O)CC[C@H](NC(=O)N[C@@H](CCC(=O)O)C(=O)O)C(=O)O)C(=O)O)C(=O)O)cc1)C(C)(C)C [rhPSMA7.1, [^19F][^natGa]D-Dap-R-DOTAGA-rhPSMA7, metal not drawn]",
    "measuredTarget": "LNCaP tumor-bearing CB-17 SCID mice",
    "Biodistribution spleen (% ID/g)": 20.0
  },
  {
    "molecule": "CC(C)(C)[Si](F)(c1ccc(C(=O)NC[C@H](NC(=O)CC[C@H](C(=O)O)N2CCN(CC(=O)O)CCN(CC(=O)O)CCN(CC(=O)O)CC2)C(=O)N[C@H](CCCCNC(=O)CCC(=O)NCCC[C@@H](NC(=O)CC[C@H](NC(=O)N[C@@H](CCC(=O)O)C(=O)O)C(=O)O)C(=O)O)C(=O)O)cc1)C(C)(C)C [rhPSMA7.2, [^19F][^natGa]L-Dap-R-DOTAGA-rhPSMA7, metal not drawn]",
    "measuredTarget": "LNCaP tumor-bearing CB-17 SCID mice",
    "Biodistribution spleen (% ID/g)": 10.1
  },
  {
    "molecule": "CC(C)(C)[Si](F)(c1ccc(C(=O)NC[C@H](NC(=O)CC[C@@H](C(=O)O)N2CCN(CC(=O)O)CCN(CC(=O)O)CCN(CC(=O)O)CC2)C(=O)N[C@H](CCCCNC(=O)CCC(=O)NCCC[C@@H](NC(=O)CC[C@H](NC(=O)N[C@@H](CCC(=O)O)C(=O)O)C(=O)O)C(=O)O)C(=O)O)cc1)C(C)(C)C [rhPSMA7.4, [^19F][^natGa]L-Dap-S-DOTAGA-rhPSMA7, metal not drawn]",
    "measuredTarget": "LNCaP tumor-bearing CB-17 SCID mice",
    "Biodistribution spleen (% ID/g)": 18.4
  }
]

* * *

Consider the following compounds and their measured Biodistribution stomach readings.
Test system: LNCaP tumor-bearing CB-17 SCID mice
conditionInfo: male, mouse, in vivo, 1 h

[
  {
    "compound": "CC(C)(C)[Si](F)(c1ccc(C(=O)NC[C@@H](NC(=O)CC[C@@H](C(=O)O)N2CCN(CC(=O)O)CCN(CC(=O)O)CCN(CC(=O)O)CC2)C(=O)N[C@H](CCCCNC(=O)CCC(=O)NCCC[C@@H](NC(=O)CC[C@H](NC(=O)N[C@@H](CCC(=O)O)C(=O)O)C(=O)O)C(=O)O)C(=O)O)cc1)C(C)(C)C [rhPSMA7.3, [^19F][^natGa]D-Dap-S-DOTAGA-rhPSMA7, metal not drawn]",
    "Biodistribution stomach": "0.44 ± 0.23 % ID/g"
  },
  {
    "compound": "CC(C)(C)[Si](F)(c1ccc(C(=O)NC[C@H](NC(=O)CC[C@@H](C(=O)O)N2CCN(CC(=O)O)CCN(CC(=O)O)CCN(CC(=O)O)CC2)C(=O)N[C@H](CCCCNC(=O)CCC(=O)NCCC[C@@H](NC(=O)CC[C@H](NC(=O)N[C@@H](CCC(=O)O)C(=O)O)C(=O)O)C(=O)O)C(=O)O)cc1)C(C)(C)C [rhPSMA7.4, [^19F][^natGa]L-Dap-S-DOTAGA-rhPSMA7, metal not drawn]",
    "Biodistribution stomach": "0.25 ± 0.06 % ID/g"
  },
  {
    "compound": "CC(C)(C)[Si](F)(c1ccc(C(=O)NC[C@@H](NC(=O)CC[C@H](C(=O)O)N2CCN(CC(=O)O)CCN(CC(=O)O)CCN(CC(=O)O)CC2)C(=O)N[C@H](CCCCNC(=O)CCC(=O)NCCC[C@@H](NC(=O)CC[C@H](NC(=O)N[C@@H](CCC(=O)O)C(=O)O)C(=O)O)C(=O)O)C(=O)O)cc1)C(C)(C)C [rhPSMA7.1, [^19F][^natGa]D-Dap-R-DOTAGA-rhPSMA7, metal not drawn]",
    "Biodistribution stomach": "0.28 ± 0.17 % ID/g"
  }
]

* * *

Test system: LNCaP tumor-bearing CB-17 SCID mice
conditionInfo: male, mouse, in vivo, 1 h

[
  {
    "molecule": "CC(C)(C)[Si](F)(c1ccc(C(=O)NC[C@@H](NC(=O)CC[C@@H](C(=O)O)N2CCN(CC(=O)O)CCN(CC(=O)O)CCN(CC(=O)O)CC2)C(=O)N[C@H](CCCCNC(=O)CCC(=O)NCCC[C@@H](NC(=O)CC[C@H](NC(=O)N[C@@H](CCC(=O)O)C(=O)O)C(=O)O)C(=O)O)C(=O)O)cc1)C(C)(C)C [rhPSMA7.3, [^19F][^natGa]D-Dap-S-DOTAGA-rhPSMA7, metal not drawn]",
    "measuredTarget": "LNCaP tumor-bearing CB-17 SCID mice",
    "Biodistribution bone, % ID/g": 0.38
  },
  {
    "molecule": "CC(C)(C)[Si](F)(c1ccc(C(=O)NC[C@@H](NC(=O)CC[C@H](C(=O)O)N2CCN(CC(=O)O)CCN(CC(=O)O)CCN(CC(=O)O)CC2)C(=O)N[C@H](CCCCNC(=O)CCC(=O)NCCC[C@@H](NC(=O)CC[C@H](NC(=O)N[C@@H](CCC(=O)O)C(=O)O)C(=O)O)C(=O)O)C(=O)O)cc1)C(C)(C)C [rhPSMA7.1, [^19F][^natGa]D-Dap-R-DOTAGA-rhPSMA7, metal not drawn]",
    "measuredTarget": "LNCaP tumor-bearing CB-17 SCID mice",
    "Biodistribution bone, % ID/g": 0.50
  },
  {
    "molecule": "CC(C)(C)[Si](F)(c1ccc(C(=O)NC[C@H](NC(=O)CC[C@@H](C(=O)O)N2CCN(CC(=O)O)CCN(CC(=O)O)CCN(CC(=O)O)CC2)C(=O)N[C@H](CCCCNC(=O)CCC(=O)NCCC[C@@H](NC(=O)CC[C@H](NC(=O)N[C@@H](CCC(=O)O)C(=O)O)C(=O)O)C(=O)O)C(=O)O)cc1)C(C)(C)C [rhPSMA7.4, [^19F][^natGa]L-Dap-S-DOTAGA-rhPSMA7, metal not drawn]",
    "measuredTarget": "LNCaP tumor-bearing CB-17 SCID mice",
    "Biodistribution bone, % ID/g": 0.62
  },
  {
    "molecule": "CC(C)(C)[Si](F)(c1ccc(C(=O)NC[C@H](NC(=O)CC[C@H](C(=O)O)N2CCN(CC(=O)O)CCN(CC(=O)O)CCN(CC(=O)O)CC2)C(=O)N[C@H](CCCCNC(=O)CCC(=O)NCCC[C@@H](NC(=O)CC[C@H](NC(=O)N[C@@H](CCC(=O)O)C(=O)O)C(=O)O)C(=O)O)C(=O)O)cc1)C(C)(C)C [rhPSMA7.2, [^19F][^natGa]L-Dap-R-DOTAGA-rhPSMA7, metal not drawn]",
    "measuredTarget": "LNCaP tumor-bearing CB-17 SCID mice",
    "Biodistribution bone, % ID/g": 0.31
  }
]

Data provenance is patent US12377176B2.
